I'd appreciate it if you could supply shrunken log2 fold change values for the items below.
System: Escherichia coli TOP10
Test: shrunken log2 fold change of peptide-encoding DNA abundance (4.5 h post-induction vs induction); higher = less antimicrobial activity (less host growth inhibition)
Settings: time post-induction: 4.5 h; library: site-saturation at positions 5, 18, 19, 20
Numbers only.

The examples below pair each entry with its known result.
RRIRPRPPRLPRPRPRPKHYPRP: -0.529
RRIRGRPPRLPRPRPRPMLCPRP: 0.558
RRIRKRPPRLPRPRPRPNVPPRP: 0.11
RRIRMRPPRLPRPRPRPSGCPRP: 0.44
RRIRKRPPRLPRPRPRPHYAPRP: -0.0144

Next sequence, please.
Observed shrunken log2 fold change on Escherichia coli TOP10, entry RRIRTRPPRLPRPRPRPSWEPRP , equals 0.0239

---

Assign shrunken log2 fold change to each entry below.
Test system: Escherichia coli TOP10
Test: shrunken log2 fold change of peptide-encoding DNA abundance (4.5 h post-induction vs induction); higher = less antimicrobial activity (less host growth inhibition)
Settings: time post-induction: 4.5 h; library: site-saturation at positions 5, 18, 19, 20

Example entries begin here.
RRIRERPPRLPRPRPRPPNLPRP: 0.0423
RRIRPRPPRLPRPRPRPQSPPRP: 0.0713
RRIRMRPPRLPRPRPRPPQKPRP: 0.173

Attention now shifts to the item below.
Field shrunken log2 fold change (entry RRIRARPPRLPRPRPRPPDHPRP ) reads 0.683

---

Tested on: Escherichia coli TOP10;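 also: peptides expressed intracellularly from a pBAD plasmid library in pooled LB shake-flask culture, induced with 0.3% L-arabinose, DNA abundance read by NGS, three biological replicates, DESeq2 with apeglm shrinkage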
Test: shrunken log2 fold change of peptide-encoding DNA abundance (4.5 h post-induction vs induction); higher = less antimicrobial activity (less host growth inhibition)
Details: time post-induction: 4.5 h; library: site-saturation at positions 5, 18, 19, 20
metric: shrunken log2 fold change
One number for each entry.

Here is how some sequences turned out for shrunken log2 fold change.
RRIRVRPPRLPRPRPRPDWGPRP: 0.184
RRIRKRPPRLPRPRPRPRVKPRP: -0.0843
RRIRNRPPRLPRPRPRPSKEPRP: -0.0243
RRIRRRPPRLPRPRPRPVLCPRP: 0.569
RRIRPRPPRLPRPRPRPLFDPRP: 0.0231
RRIRVRPPRLPRPRPRPWIQPRP: 0.0857
RRIRLRPPRLPRPRPRPYANPRP: -0.165
RRIRNRPPRLPRPRPRPKRYPRP: 0.0391
RRIRQRPPRLPRPRPRPDFRPRP: 0.0259
RRIRSRPPRLPRPRPRPEPVPRP: 1.44

List reported shrunken log2 fold change for each of these sequences:
1. RRIRVRPPRLPRPRPRPNMMPRP
2. RRIRWRPPRLPRPRPRPLNCPRP

**Result**
-0.248
-0.0452

For each listed entry, give its shrunken log2 fold change.
1. RRIRPRPPRLPRPRPRPFKDPRP
2. RRIRRRPPRLPRPRPRPNIHPRP
3. RRIRERPPRLPRPRPRPYAEPRP
4. RRIRLRPPRLPRPRPRPWIDPRP
5. RRIRPRPPRLPRPRPRPGHPPRP
6. RRIRDRPPRLPRPRPRPVMMPRP

**Result**
-0.93
0.564
-0.447
-0.0305
-0.12
-0.168

Report shrunken log2 fold change for every entry below.
1. RRIRVRPPRLPRPRPRPQMQPRP
2. RRIRCRPPRLPRPRPRPFNFPRP

**Result**
-0.325
-0.813
